target: T1, HLA-A2/E6 (29-38) tetramer (human; HPV 16); experiment: tetramer flow cytometry; transfected Jurkat-derived cells, CD8+ population
T1 construct: also called E6(29-38) peptide-MHC tetramer; E6(29-38)-loaded tetramer
property: % cells in E6 tet-/CD8- quadrant (%)
Please reply with the bare figure in % and do not write the unit itself.

Some entries whose results are on file:
binder	% cells in E6 tet-/CD8- quadrant, %
TCR 24 (codon optimized, cysteine modified version) (TCR, V domains shown) V domain 1: AQKITQTQPGMFVQEKEAVTLDCTYDTSDQSYGLFWYKQPSSGEMIFLIYQGSYDEQNATEGRYSLNFQKARKSANLVISASQLGDSAMYFCAMREGRGDSWGKLQFGAGTQVVVTP V domain 2: DVKVTQSSRYLVKRTGEKVFLECVQDMDHENMFWYRQDPGLGLRLIYFSYDVKMKEKGDIPEGYSVSREKKERFSLILESASTNQTSMYLCASSPFGRGSYEQYFGPGTRLTVTE	4.51
TCR 27 (codon optimized, cysteine modified version) (TCR, V domains shown) V domain 1: DAKTTQPNSMESNEEEPVHLPCNHSTISGTDYIHWYRQLPSQGPEYVIHGLTSNVNNRMASLAIAEDRKSSTLILHRATLRDAAVYYCILRVPPQSGGYQKVTFGTGTKLQVIP V domain 2: NAGVTQTPKFQVLKTGQSMTLQCAQDMNHNSMYWYRQDPGMGLRLIYYSASEGTTDKGEVPNGYNVSRLNKREFSLRLESAAPSQTSVYFCASSEFGSLNEKLFFGSGTQLSVLE	1.96
TCR 17 (codon optimized, cysteine modified version) (TCR, V domains shown) V domain 1: AQKITQTQPGMFVQEKEAVTLDCTYDTSDPSYGLFWYKQPSSGEMIFLIYQGSYDQQNATEGRYSLNFQKARKSANLVISASQLGDSAMYFCAMREGRGDKIIFGKGTRLHILP V domain 2: DVKVTQSSRYLVKRTGEKVFLECVQDMDHENMFWYRQDPGLGLRLIYFSYDVKMKEKGDIPEGYSVSREKKERFSLILESASTNQTSMYLCASSLWGRSNQPQHFGDGTRLSILE	1.53

--- query ---
Ask | Which % cells in E6 tet-/CD8- quadrant is reported for this binder? TCR 21 (codon optimized, cysteine modified version) (TCR, V domains shown) V domain 1: AQKITQTQPGMFVQEKEAVTLDCTYDTSDQSYGLFWYKQPSSGEMIFLIYQGSYDEQNATEGRYSLNFQKARKSANLVISASQLGDSAMYFCAMREGRVTGGGNKLTFGTGTQLKVEL V domain 2: NAGVTQTPKFQVLKTGQSMTLQCAQDMNHNSMYWYRQDPGMGLRLIYYSASEGTTDKGEVPNGYNVSRLNKREFSLRLESAAPSQTSVYFCASRPWGNQNTEAFFGQGTRLTVVE
Reply | 2.18
